MFI overview
# Tested target: Bt-SARS-CoV-2 Spike Protein (RBD) (R319-F541).mFc (SARS-CoV-2)
# Assay comment: Luminex beads, supernatant
Supply the numeric figure in MFI, leaving out any unit text.

mAb10935 (antibody, V domains shown) VH: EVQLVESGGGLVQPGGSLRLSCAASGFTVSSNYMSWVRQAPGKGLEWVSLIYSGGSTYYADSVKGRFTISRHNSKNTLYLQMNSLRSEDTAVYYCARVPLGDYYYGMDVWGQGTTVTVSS VL: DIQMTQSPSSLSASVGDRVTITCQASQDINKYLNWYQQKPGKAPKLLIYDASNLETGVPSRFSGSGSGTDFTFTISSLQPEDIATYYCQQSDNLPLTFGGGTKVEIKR: 19300

Please indicate MFI recorded for mAb10964 (antibody, V domains shown) VH: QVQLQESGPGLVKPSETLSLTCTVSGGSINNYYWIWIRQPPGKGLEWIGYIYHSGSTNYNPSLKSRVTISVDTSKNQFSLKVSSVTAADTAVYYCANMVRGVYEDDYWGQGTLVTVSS VL: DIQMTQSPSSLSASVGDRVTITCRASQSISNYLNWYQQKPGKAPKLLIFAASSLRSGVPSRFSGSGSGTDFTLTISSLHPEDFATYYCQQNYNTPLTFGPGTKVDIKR
19200

Please indicate MFI recorded for mAb10920 (antibody, V domains shown) VH: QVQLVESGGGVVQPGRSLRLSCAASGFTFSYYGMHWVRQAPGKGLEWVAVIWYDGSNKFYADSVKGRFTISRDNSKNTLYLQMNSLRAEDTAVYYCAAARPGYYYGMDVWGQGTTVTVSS VL: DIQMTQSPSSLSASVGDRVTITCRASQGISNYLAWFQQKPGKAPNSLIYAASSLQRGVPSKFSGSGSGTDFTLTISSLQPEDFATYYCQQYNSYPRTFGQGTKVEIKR
20300
